Provenance of the data: ChEMBL document CHEMBL1287778

Test system: Fusarium oxysporum f. sp. vasinfectum
Test: Antifungal activity against Fusarium oxysporum f. sp. vasinfectum assessed as percent inhibition at 100 ug/ml
Format: functional
Provide the recorded inhibition at 100 µg/mL for the entries that follow.
Answers are plain numbers, in %.

Examples with their reported inhibition at 100 µg/mL follow.
The compound listed as C/C(=N\NC(=N)N)c1cn(S(=O)(=O)c2ccc(C)cc2)c2ccccc12 has a reported inhibition at 100 µg/mL of 58.3

The compound listed as N#Cc1ccc2c(c1)c(/C=N/NC(=N)N)cn2S(=O)(=O)c1ccccc1 has a reported inhibition at 100 µg/mL of 14.1

The compound listed as N=C(N)N/N=C/c1cn(S(=O)(=O)c2ccccc2)c2ccccc12 has a reported inhibition at 100 µg/mL of 47.8

Hey, can you go through the list below and give me inhibition at 100 µg/mL for every item?
1. CC/C(=N\NC(=N)N)c1cn(S(=O)(=O)c2ccccc2)c2ccccc12
2. Cc1cc(O)no1 [HYMEXAZOL]
3. Cc1ccc(S(=O)(=O)n2cc(/C=N/NC(=N)N)c3ccccc32)cc1
4. N=C(N)N/N=C/c1cn(S(=O)(=O)c2cccc([N+](=O)[O-])c2)c2ccccc12

## Result
56.7
63.2
51.8
28.6

Hey, can you go through the list below and give me inhibition at 100 µg/mL for every item?
1. CCCCC/C(=N\NC(=N)N)c1cn(S(=O)(=O)c2ccccc2)c2ccccc12
2. Cc1ccc(S(=O)(=O)n2cc(/C=N/NC(=N)N)c3cc(C#N)ccc32)cc1
3. C/C(=N\NC(=N)N)c1cn(S(=O)(=O)c2cccc([N+](=O)[O-])c2)c2cc(C)ccc12

## Result
[30.7, 13, 23.2]

Hey, can you go through the list below and give me inhibition at 100 µg/mL for every item?
1. C/C(=N\NC(=N)N)c1cn(S(=O)(=O)c2ccccc2)c2cccc(C)c12
2. Cc1ccc2c(/C=N/NC(=N)N)cn(S(=O)(=O)c3ccccc3)c2c1
3. C/C(=N\NC(=N)N)c1cn(S(=O)(=O)c2ccc(C)cc2)c2cccc(C)c12
4. C/C(=N\NC(=N)N)c1cn(S(=O)(=O)c2ccccc2)c2ccccc12
5. COc1ccc(S(=O)(=O)n2cc(/C(C)=N/NC(=N)N)c3ccc(C)cc32)cc1
6. CCCCC/C(=N\NC(=N)N)c1cn(S(=O)(=O)c2ccc(C)cc2)c2cc(C)ccc12
7. Cc1ccc(S(=O)(=O)n2cc(/C=N/NC(=N)N)c3ccc(C)cc32)cc1

## Result
1. 64.9
2. 40
3. 55.6
4. 60
5. 24.2
6. 33.3
7. 40.5

Hey, can you go through the list below and give me inhibition at 100 µg/mL for every item?
1. Cc1ccc(S(=O)(=O)n2cc(/C=N/NC(=N)N)c3c(C)cccc32)cc1
2. Cc1cccc2c1c(/C=N/NC(=N)N)cn2S(=O)(=O)c1ccccc1

## Result
1. 41.6
2. 19.9

* * *

System: Fusarium graminearum
Test: Antifungal activity against Fusarium graminearum assessed as percent inhibition at 100 ug/ml
Format: functional
Provide the recorded inhibition at 100 µg/mL for the entries that follow.
One number for each entry, in %.

Examples with their reported inhibition at 100 µg/mL follow.
Entry Cc1cc(O)no1 under Fusarium graminearum had inhibition at 100 µg/mL of 68

Entry Cc1cccc2c1c(/C=N/NC(=N)N)cn2S(=O)(=O)c1ccccc1 under Fusarium graminearum had inhibition at 100 µg/mL of 26

Entry C/C(=N\NC(=N)N)c1cn(S(=O)(=O)c2ccc(C)cc2)c2cccc(C)c12 under Fusarium graminearum had inhibition at 100 µg/mL of 46.6

Entry CCCCC/C(=N\NC(=N)N)c1cn(S(=O)(=O)c2ccc(C)cc2)c2cc(C)ccc12 under Fusarium graminearum had inhibition at 100 µg/mL of 28.5

Entry C/C(=N\NC(=N)N)c1cn(S(=O)(=O)c2ccc(C)cc2)c2ccccc12 under Fusarium graminearum had inhibition at 100 µg/mL of 48.8

Entry Cc1ccc(S(=O)(=O)n2cc(/C=N/NC(=N)N)c3ccccc32)cc1 under Fusarium graminearum had inhibition at 100 µg/mL of 44.1

Hey, can you go through the list below and give me inhibition at 100 µg/mL for every item?
1. Cc1ccc(S(=O)(=O)n2cc(/C=N/NC(=N)N)c3ccc(C)cc32)cc1
2. N#Cc1ccc2c(c1)c(/C=N/NC(=N)N)cn2S(=O)(=O)c1ccccc1
3. Cc1ccc(S(=O)(=O)n2cc(/C=N/NC(=N)N)c3cc(C#N)ccc32)cc1

## Result
[39, 26, 13.3]
